experimental target: Human GRIN1 and human GRIN2B expressing HEK293 cells (Homo sapiens, UniProt Q13224)
Construct: host or cells: HEK293
Sequence (Q13224 27-1484, other chains not shown): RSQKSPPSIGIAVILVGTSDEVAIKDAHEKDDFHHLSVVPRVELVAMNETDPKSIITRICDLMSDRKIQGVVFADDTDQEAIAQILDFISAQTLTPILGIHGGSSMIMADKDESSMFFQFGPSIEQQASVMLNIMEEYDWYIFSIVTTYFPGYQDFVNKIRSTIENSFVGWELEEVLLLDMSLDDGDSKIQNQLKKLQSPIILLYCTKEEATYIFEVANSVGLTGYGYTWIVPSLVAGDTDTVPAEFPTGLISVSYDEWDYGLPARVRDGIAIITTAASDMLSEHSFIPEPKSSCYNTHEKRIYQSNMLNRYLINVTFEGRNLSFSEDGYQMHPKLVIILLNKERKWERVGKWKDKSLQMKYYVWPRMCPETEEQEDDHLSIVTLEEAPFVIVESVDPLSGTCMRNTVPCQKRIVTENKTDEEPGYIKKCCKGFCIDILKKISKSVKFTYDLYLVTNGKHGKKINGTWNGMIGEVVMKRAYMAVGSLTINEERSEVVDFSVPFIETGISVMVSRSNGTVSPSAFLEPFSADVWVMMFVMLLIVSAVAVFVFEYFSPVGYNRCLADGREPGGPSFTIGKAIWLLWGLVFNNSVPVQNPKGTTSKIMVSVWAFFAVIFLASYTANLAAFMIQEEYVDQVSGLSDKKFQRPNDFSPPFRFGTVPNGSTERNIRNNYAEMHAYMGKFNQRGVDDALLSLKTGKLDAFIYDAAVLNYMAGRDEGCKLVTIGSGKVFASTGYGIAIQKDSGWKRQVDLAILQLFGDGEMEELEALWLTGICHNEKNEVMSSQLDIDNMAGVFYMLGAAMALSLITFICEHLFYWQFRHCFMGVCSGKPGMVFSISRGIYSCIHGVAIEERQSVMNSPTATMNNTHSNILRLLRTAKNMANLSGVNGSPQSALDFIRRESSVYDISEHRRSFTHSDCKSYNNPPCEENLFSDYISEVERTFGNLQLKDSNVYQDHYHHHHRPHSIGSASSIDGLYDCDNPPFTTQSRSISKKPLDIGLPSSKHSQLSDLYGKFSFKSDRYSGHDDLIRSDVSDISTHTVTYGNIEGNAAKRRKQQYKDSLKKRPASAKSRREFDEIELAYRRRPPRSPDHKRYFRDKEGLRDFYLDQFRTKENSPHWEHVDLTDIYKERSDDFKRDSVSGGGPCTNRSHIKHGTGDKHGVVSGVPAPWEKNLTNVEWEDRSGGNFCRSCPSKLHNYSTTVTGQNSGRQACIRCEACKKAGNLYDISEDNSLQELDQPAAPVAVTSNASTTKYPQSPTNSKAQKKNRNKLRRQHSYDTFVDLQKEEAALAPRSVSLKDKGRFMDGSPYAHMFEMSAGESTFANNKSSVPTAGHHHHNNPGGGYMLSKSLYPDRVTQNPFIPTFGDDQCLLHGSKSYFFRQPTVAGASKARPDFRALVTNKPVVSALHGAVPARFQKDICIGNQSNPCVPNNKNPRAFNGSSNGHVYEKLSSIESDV
experimental details: NR2B Ca2+ flux assay
Format: cell-based
conditions used: 10 μM test compound, glutamic acid/glycine stimulated Fluo-4 fluorescence, FLIPR, read-out: inhibitory rate (@10 μM)
quantity measured: inhibition at 10 µM (%)

O=C(Cc1cccc2nccn12)Nc1ccc(S(F)(F)(F)(F)F)cc1: 82
O=C(Cc1cccc2nccn12)Nc1ccc(I)c(F)c1: 94
O=C(Cc1cccc2nccn12)Nc1ccc(Br)c(F)c1: 93

----------
experimental target: Human GRIN1 and human GRIN2B expressing HEK293 cells (Homo sapiens, UniProt Q13224)
Construct: host or cells: HEK293
experimental details: NR2B Ca2+ flux assay
Format: cell-based
conditions used: 10 μM test compound, glutamic acid/glycine stimulated Fluo-4 fluorescence, FLIPR, read-out: inhibitory rate (@10 μM)
quantity measured: inhibition at 10 µM (%)

O=C(Cc1cccc2nccn12)Nc1ccc(OC(F)F)cc1 [Example 6]: 93
O=C(Cc1cccc2nccn12)Nc1ccc(OC(F)(F)F)cn1 [Example 92]: 87
O=C(Cc1cccc2nccn12)Nc1ccc(C(F)(F)F)c(Cl)c1 [Example 39]: 90
CCc1ccc(NC(=O)Cc2cccc3nccn23)nc1 [Example 95]: 76
O=C(Cc1cccc2nccn12)Nc1ccc(C(F)(F)F)cc1 [Example 1]: 91
O=C(Cc1cccc2nccn12)Nc1ccc(OC(F)F)c(F)c1 [Example 17]: 93
O=C(Cc1cccc2nccn12)Nc1cnc(C(F)(F)F)nc1 [Example 47]: 52
Cc1cn2c(CC(=O)Nc3ccc(C(F)(F)F)cc3)cccc2n1 [Example 23]: 81
O=C(Cc1cccc2nccn12)Nc1ccc(C(F)F)cc1 [Example 69]: 87
N#Cc1ccc(NC(=O)Cc2cccc3nccn23)cc1 [Example 31]: 78
O=C(Cc1cccc2nccn12)Nc1ccc(C2CC2)cc1 [Example 4]: 94
O=C(Cc1cccc2nccn12)Nc1ccc2c(c1)CCO2 [Example 67]: 78
O=C(Cc1cccc2nccn12)Nc1ccc(Cl)c(F)c1 [Example 7]: 90
O=C(Cc1cccc2nccn12)Nc1ccc(C(F)(F)F)nc1 [Example 44]: 71
COc1ccc2nccn2c1CC(=O)Nc1ccc(C(F)(F)F)cc1 [Example 89]: 92
CC(C)(C)c1ccc(NC(=O)Cc2cccc3nccn23)cc1 [Example 64]: 84
O=C(Cc1cccc2nccn12)Nc1ccc(Cl)cc1 [Example 33]: 92
O=C(Cc1cccc2nccn12)Nc1ccc(CC(F)F)cc1 [Example 13]: 88
CCc1ccc(NC(=O)Cc2cccc3nccn23)cc1 [Example 3]: 94
O=C(Cc1ccc(F)c2nccn12)Nc1ccc(OC(F)(F)F)cc1 [Example 94]: 85
Cc1cnc2cccc(CC(=O)Nc3ccc(C(F)(F)F)cc3)n12 [Example 20]: 74

src = patent US10202376B2
